Each record here notes measured pIC50.
Target: KRAS (G12D)::SOS1 (Homo sapiens (Human), UniProt P01116, G12D)
Sequence (P01116 other isoform, or with tags, fused parts or gaps G12D): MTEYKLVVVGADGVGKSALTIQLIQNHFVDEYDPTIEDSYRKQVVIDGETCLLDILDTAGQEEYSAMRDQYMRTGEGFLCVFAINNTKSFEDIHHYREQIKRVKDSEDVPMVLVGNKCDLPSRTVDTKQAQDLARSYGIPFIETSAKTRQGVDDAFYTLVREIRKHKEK
Assay: KRAS::SOS1 AlphaScreen binding assay, KRAS G12D
pIC50: −log10 of the molar value.
Property Name: pIC50

INSERT INTO measurements (molecule, property_name, assay_value) VALUES
  ('C[C@H](Oc1cc(-c2ccn(C)n2)nc(-c2noc3c2CCC[C@@]32CCCc3sc(N)c(C#N)c32)n1)[C@@H]1CCCN1C [II-96]', 'pIC50', 8.70),
  ('CC(C)N1CCCN(c2cc(-c3ccn(C)n3)nc(-c3noc4c3CCC[C@@]43CCCc4sc(N)c(C#N)c43)n2)[C@@H](C)C1 [II-170]', 'pIC50', 8.05),
  ('C[C@H](Oc1cc([C@H]2CCNC2)nc(-c2noc3c2CCC[C@@]32CCCc3sc(N)c(C#N)c32)n1)[C@@H]1CCCN1C [II-163]', 'pIC50', 9.00),
  ('C[C@H](Oc1cc(N2CCNC[C@]23CCOC3)nc(-c2noc3c2CCC[C@@]32CCCc3sc(N)c(C#N)c32)n1)[C@@H]1CCCN1C [II-50]', 'pIC50', 9.00),
  ('C[C@H](Oc1cc(N2CCNC3(CC3)C2)nc(-c2noc3c2CCC[C@@]32CCCc3sc(N)c(C#N)c32)n1)[C@@H]1C[C@@H](F)CN1C [II-165]', 'pIC50', 9.00),
  ('Cc1cn(C)nc1-c1cc(O[C@@H](C)[C@@H]2CCCN2C)nc(-c2noc3c2CCC[C@@]32CCCc3sc(N)c(C#N)c32)n1 [II-68]', 'pIC50', 8.05),
  ('C[C@H](Oc1cc(-n2cc(-c3cncs3)nn2)nc(-c2noc3c2CCC[C@@]32CCCc3sc(N)c(C#N)c32)n1)[C@@H]1CCCN1C [II-125]', 'pIC50', 8.22),
  ('C[C@H](Oc1cc(-n2cc3ccn([C@@H](C)c4ccccn4)c(=O)c3n2)nc(-c2noc3c2CCC[C@@]32CCCc3sc(N)c(C#N)c32)n1)[C@@H]1CCCN1C [II-205]', 'pIC50', 8.10),
  ('C[C@H](Oc1cc(N2C[C@H](C)N[C@@H](C)C2)nc(-c2onc3c2CCC[C@@]32CCCc3sc(N)c(C#N)c32)n1)[C@@H]1CCCN1C [I-6]', 'pIC50', 9.00),
  ('C[C@H](Oc1cc(-c2ccn([C@H]3CCOC3)n2)nc(-c2noc3c2CCC[C@@]32CCCc3sc(N)c(C#N)c32)n1)[C@@H]1CCCN1C [II-127]', 'pIC50', 8.52),
  ('C[C@H](Oc1cc(N2CCN[C@@H](C)C2)nc(-c2noc3c2CCC[C@@]32CCCc3sc(N)c(C#N)c32)n1)[C@@H]1CCCN1C [II-162]', 'pIC50', 9.00),
  ('C[C@H](Oc1cc(-n2ccc(C#N)n2)nc(-c2noc3c2CCC[C@@]32CCCc3sc(N)c(C#N)c32)n1)[C@@H]1CCCN1C [II-102]', 'pIC50', 8.52),
  ('CO[C@@H]1C[C@@H]([C@H](C)Oc2cc(-c3cnn(C)n3)nc(-c3onc4c3CCC[C@@]43CCCc4sc(N)c(C#N)c43)n2)N(C)C1 [I-17]', 'pIC50', 7.82);
